Listing: relative viability of selected compounds
test system: SK-LMS-1; assay: relative viability vs DMSO control (72 h) (fraction); higher = more viable cells; conditions: 0.00017 µM
Just the number, please, no unit attached.

> print(dat)
                         chemical.structure  reported.result
1  CN(C)C[C@@H]1CCn2cc(c3ccccc32)C2=C(C(=O)NC2=O)c2cn(c3ccccc23)CCO1             1.05
2  CCCS(=O)(=O)N[C@H]1C[C@@H](N(C)c2ncnc3[nH]ccc23)C1                1
3  COc1cc2c(Oc3ccc4[nH]c(C)cc4c3F)ccnc2cc1OCC1(N)CC1             1.08
4  COc1cc(Nc2c(C#N)cnc3cc(OCCCN4CCN(C)CC4)c(OC)cc23)c(Cl)cc1Cl             1.06
5  C#Cc1cccc(Nc2ncnc3cc(OCCOC)c(OCCOC)cc23)c1             1.06

Find the recorded relative viability belonging to "CNC(=O)c1cc(Oc2ccc(NC(=O)Nc3ccc(Cl)c(C(F)(F)F)c3)cc2)ccn1" and report it. 1.1

What value of relative viability has been recorded for this entry: "COc1cc2ncnc(Nc3ccc(F)c(Cl)c3)c2cc1NC(=O)/C=C/CN1CCCCC1" 1.11

Please report the recorded relative viability for "Cc1c(F)cc(C(=O)NC2CC2)cc1-c1ccc(C(=O)NCC(C)(C)C)cn1" . 1.02
